Reported Human GIPR cAMP EC50, HEK293T values for a set of binders
Molecular target: T1, full-length human GIPR with an N-terminal FLAG tag (human, UniProt P48546 22-466)
T1 sequence (looked up): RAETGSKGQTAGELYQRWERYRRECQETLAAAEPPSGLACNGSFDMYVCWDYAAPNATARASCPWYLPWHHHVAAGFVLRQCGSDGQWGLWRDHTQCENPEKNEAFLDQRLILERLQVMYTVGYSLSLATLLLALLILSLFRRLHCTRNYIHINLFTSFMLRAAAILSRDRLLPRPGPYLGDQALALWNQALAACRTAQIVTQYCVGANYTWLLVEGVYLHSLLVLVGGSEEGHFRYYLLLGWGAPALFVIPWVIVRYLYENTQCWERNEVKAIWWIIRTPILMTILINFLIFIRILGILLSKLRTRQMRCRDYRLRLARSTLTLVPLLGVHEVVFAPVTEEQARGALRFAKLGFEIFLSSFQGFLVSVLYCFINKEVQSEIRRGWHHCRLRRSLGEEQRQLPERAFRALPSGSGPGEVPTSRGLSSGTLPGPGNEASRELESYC
Test: cell-based or functional assay
Starred links: 1 amine or outer side, 2 acyl side, 3 side chain; linkers in the order of their positions; H or OH if unused. Non-standard residues stand in square brackets, D forms with d. Groups on a side chain read outwards from the residue. No end group written: not given here. *: point of attachment. C18 diacid = O=C(O)CCCCCCCCCCCCCCCCC(=O)*; C17 diacid = O=C(O)CCCCCCCCCCCCCCCC(=O)*; γGlu = O=C(O)[C@H](CCC(=O)[*:2])N[*:1]; NMeY = CN[C@@H](Cc1ccc(O)cc1)C(=O)O; AEEA = NCCOCCOCC(=O)O; Aib = CC(C)(N)C(=O)O
# number only, unit pM dropped from output

[
  {
    "binder": "YXEGTFISDYSIAXDRXAQXDFVNWLLAQRPSSG (N-methyl Tyr 1; Aib at 2,17,20; Lys(G5-C18 diacid) at 14; C-terminal OH) [Compound No. 70]",
    "Human GIPR cAMP EC50, HEK293T / pM": 0.2
  },
  {
    "binder": "[NMeY][Aib]EGTFISDYSI[Aib]LDR[Aib]AQ[Aib]NFVNWLLAQK([AEEA-AEEA-γGlu-γGlu-C17 diacid])GGGGS-NH2 [Compound No. 33]",
    "Human GIPR cAMP EC50, HEK293T / pM": 0.8
  },
  {
    "binder": "[NMeY][Aib]EGTFISDYSIAKDR[Aib]AQ[Aib]NFVNWLLAQK-NH2 (not fully specified (residue 14)) [Compound No. 6]",
    "Human GIPR cAMP EC50, HEK293T / pM": 0.4
  },
  {
    "binder": "H-Y[Aib]EGTFISDYSIALDKIAQQK([AEEA-AEEA-γGlu-γGlu-C17 diacid])FVEWLLAQRPSSGAPPPS-OH [Compound No. 134]",
    "Human GIPR cAMP EC50, HEK293T / pM": 0.6
  }
]

Now examine the next entry.
q: Name the recorded Human GIPR cAMP EC50, HEK293T for [NMeY][Aib]EGTFISDYSI[Aib]LDR[Aib]K([AEEA-AEEA-γGlu-γGlu-C18 diacid])Q[Aib]NFVNWLLAQSPSSGAPPPS-NH2 [Compound No. 100] .
a: 0.6
